# Test system: KG-1 cells
# assay-notes: MTT assay, cell viability of KG-1 cells
# Type: cell-based
# condition: Homo sapiens, 48 h, mean ± s.d., n = 3, read-out: IC50 values of compounds for leukemia cells
pIC50: −log10 of the molar value.
Documented pIC50 across a set of compounds

{"columns": ["compound", "limit-sign", "pIC50"],
 "data": [
  ["COC1=C2C[C@@H](C)C[C@H](OC)[C@H](O)[C@@H](C)/C=C(\\C)[C@H](OC(N)=O)[C@@H](OC)/C=C\\C=C(/C)C(=O)NC(=CC1=O)C2=O [GD, geldanamycin, reference compound]", "=", 5.49],
  ["COc1ccc(-c2nc(-c3cc(C(F)(F)F)cc(C(F)(F)F)c3)n(Cc3ccc(C(=O)NCCOCCOCCN)cc3)c2-c2ccc(OC)cc2)cc1 [Az, apoptozole]", "=", 5.48],
  ["COc1ccc(-c2nc(-c3cc(C(F)(F)F)cc(C(F)(F)F)c3)n(Cc3ccc(C(=O)NCCCOCCOCCOCCCNC4=C5CC(C)CC(OC)C(O)C(C)C=C(C)C(OC(N)=O)C(OC)C=CC=C(C)C(=O)NC(=CC4=O)C5=O)cc3)c2-c2ccc(OC)cc2)cc1 (stereo not drawn) [Az-O3-GD]", "=", 5.88],
  ["COc1ccc(-c2nc(-c3cc(C(F)(F)F)cc(C(F)(F)F)c3)n(Cc3ccc(C(=O)NCCOCCOCCOCCOCCN4CCN(Cc5ccc(C(=O)Nc6ccc(C)c(Nc7nccc(-c8cccnc8)n7)c6)cc5)CC4)cc3)c2-c2ccc(OC)cc2)cc1 [Az-O4-Imatinib]", "<", 5.00],
  ["COc1ccc(-c2nc(-c3cc(C(F)(F)F)cc(C(F)(F)F)c3)n(Cc3ccc(C(=O)NCCOCCOCCOCCN4CCN(Cc5ccc(C(=O)Nc6ccc(C)c(Nc7nccc(-c8cccnc8)n7)c6)cc5)CC4)cc3)c2-c2ccc(OC)cc2)cc1 [Az-O3-Imatinib]", "<", 5.00],
  ["COc1ccc(-c2nc(-c3cc(C(F)(F)F)cc(C(F)(F)F)c3)n(Cc3ccc(C(=O)NCCOCCOCCNC4=C5C[C@@H](C)C[C@H](OC)[C@H](O)[C@@H](C)/C=C(\\C)[C@H](OC(N)=O)[C@@H](OC)/C=C\\C=C(/C)C(=O)NC(=CC4=O)C5=O)cc3)c2-c2ccc(OC)cc2)cc1 [Az-GD]", "=", 6.04]
]}

###

# Tested on: human leukemia cells (HL-60, KG-1, THP-1, U937, Jurkat and K562 cells)
# assay-notes: MTT assay, all tested leukemia cells (summary statements)
# condition: all tested leukemia cells, MTT, compared with Az, GD and imatinib
value-kind: cytotoxicity relative to the individual inhibitors

{"columns": ["compound", "result"],
 "data": [
  ["COc1ccc(-c2nc(-c3cc(C(F)(F)F)cc(C(F)(F)F)c3)n(Cc3ccc(C(=O)NCCOCCOCCNC(=O)COCCOCCOCCNC4=C5C[C@@H](C)C[C@H](OC)[C@H](O)[C@@H](C)/C=C(\\C)[C@H](OC(N)=O)[C@@H](OC)/C=C\\C=C(/C)C(=O)NC(=CC4=O)C5=O)cc3)c2-c2ccc(OC)cc2)cc1 [Az-amide-GD]", "poorer cytotoxicity"],
  ["COc1ccc(-c2nc(-c3cc(C(F)(F)F)cc(C(F)(F)F)c3)n(Cc3ccc(C(=O)NCCOCCOCCOCCOCCN4CCN(Cc5ccc(C(=O)Nc6ccc(C)c(Nc7nccc(-c8cccnc8)n7)c6)cc5)CC4)cc3)c2-c2ccc(OC)cc2)cc1", "poorer cytotoxicity"],
  ["COc1ccc(-c2nc(-c3cc(C(F)(F)F)cc(C(F)(F)F)c3)n(Cc3ccc(C(=O)NCCOCCOCCOCCN4CCN(Cc5ccc(C(=O)Nc6ccc(C)c(Nc7nccc(-c8cccnc8)n7)c6)cc5)CC4)cc3)c2-c2ccc(OC)cc2)cc1", "poorer cytotoxicity"]
]}

###

Documented pIC50 across a set of molecules
# System: U937 cells
# assay-notes: MTT assay, cell viability of U937 cells
# Assay type: cell-based
# condition: Homo sapiens, U-937, 48 h, mean ± s.d., n = 3, read-out: IC50 values of compounds for leukemia cells
pIC50: −log10 of the molar value.
value-kind: pIC50

{"columns": ["molecule", "value-kind", "limit-sign", "quantitative-readout"],
 "data": [
  ["COc1ccc(-c2nc(-c3cc(C(F)(F)F)cc(C(F)(F)F)c3)n(Cc3ccc(C(=O)NCCCOCCOCCOCCCNC4=C5CC(C)CC(OC)C(O)C(C)C=C(C)C(OC(N)=O)C(OC)C=CC=C(C)C(=O)NC(=CC4=O)C5=O)cc3)c2-c2ccc(OC)cc2)cc1 (stereo not drawn)", "pIC50", "=", 5.95],
  ["COc1ccc(-c2nc(-c3cc(C(F)(F)F)cc(C(F)(F)F)c3)n(Cc3ccc(C(=O)NCCOCCOCCOCCN4CCN(Cc5ccc(C(=O)Nc6ccc(C)c(Nc7nccc(-c8cccnc8)n7)c6)cc5)CC4)cc3)c2-c2ccc(OC)cc2)cc1", "pIC50", "<", 5.00],
  ["COc1ccc(-c2nc(-c3cc(C(F)(F)F)cc(C(F)(F)F)c3)n(Cc3ccc(C(=O)NCCOCCOCCN)cc3)c2-c2ccc(OC)cc2)cc1", "pIC50", "=", 5.33],
  ["COC1=C2C[C@@H](C)C[C@H](OC)[C@H](O)[C@@H](C)/C=C(\\C)[C@H](OC(N)=O)[C@@H](OC)/C=C\\C=C(/C)C(=O)NC(=CC1=O)C2=O [GD, geldanamycin, reference compound]", "pIC50", "=", 5.32],
  ["COc1ccc(-c2nc(-c3cc(C(F)(F)F)cc(C(F)(F)F)c3)n(Cc3ccc(C(=O)NCCOCCOCCOCCOCCN4CCN(Cc5ccc(C(=O)Nc6ccc(C)c(Nc7nccc(-c8cccnc8)n7)c6)cc5)CC4)cc3)c2-c2ccc(OC)cc2)cc1", "pIC50", "<", 5.00],
  ["COc1ccc(-c2nc(-c3cc(C(F)(F)F)cc(C(F)(F)F)c3)n(Cc3ccc(C(=O)NCCOCCOCCNC4=C5C[C@@H](C)C[C@H](OC)[C@H](O)[C@@H](C)/C=C(\\C)[C@H](OC(N)=O)[C@@H](OC)/C=C\\C=C(/C)C(=O)NC(=CC4=O)C5=O)cc3)c2-c2ccc(OC)cc2)cc1", "pIC50", "=", 5.95]
]}

Cited source for all entries: paper PMC5471252
